# Test system: Swiss mice, Sarcoma 180 sc, mean tumor weight T/C
# experimental.protocol: NCI In Vivo Anticancer Drug Screen. Data for tumor model Sarcoma 180 (subcutaneous) in Swiss mice
# conditions: endpoint: mean tumor weight; dose: 5.0 mg/kg/injection; schedule: Q01DX007 (ip); vehicle: carboxymethylcellulose (CMC); higher = larger tumour
measured.attribute: T/C

INPUT: Entry under review: Nc1nc(SC2=NCCN2)c2[nH]cnc2n1 . Reported T/C?
OUTPUT: 57 % of control

INPUT: Same for C[C@]12CC[C@H](O)C[C@H]1CC[C@@H]1[C@@H]2CC[C@]2(C)[C@@H](C3=CC(=O)OC3)CC[C@]12O
OUTPUT: 79 % of control

INPUT: Same read-out for O=[As]O ?
OUTPUT: 66 % of control

INPUT: Next up: O=C(O)O.[Cd]
OUTPUT: 69 % of control
